Molecular target: NUDT7 (Homo sapiens, UniProt P0C024)
Construct: residues 14-235, E. coli, pNIC28-Bsa4, N-terminal His6 tag removed by TEV, construct 26672 Da
Sequence (P0C024 14-235): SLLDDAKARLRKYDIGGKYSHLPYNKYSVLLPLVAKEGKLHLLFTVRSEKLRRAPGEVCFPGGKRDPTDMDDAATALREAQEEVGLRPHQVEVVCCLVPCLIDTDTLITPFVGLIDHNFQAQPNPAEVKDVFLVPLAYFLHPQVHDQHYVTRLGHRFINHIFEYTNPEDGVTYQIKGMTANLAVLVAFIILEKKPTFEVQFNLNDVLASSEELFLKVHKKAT
Parameters: Intact protein LC/MS covalent labelling, fragments in pools of five, 200 uM each, 4 °C
Conditions: 24 h, 4 °C, pool of five; 200 µM; covalent
experimental-endpoint: NUDT7

• CN(Cc1ccc(Br)cc1)C(=O)CCl = 0.58
• NC(=O)c1ccsc1NC(=O)CCl = 0.18
• Cc1cc(C)c(NC(=O)CCl)c(C)c1 = 0
• Cc1ccc(-c2cc(NC(=O)CCl)on2)cc1 = 0.81
• O=C(CCl)Nc1ccc(Cl)cc1C(=O)O = 0
• CC(C)N(C)C(=O)C1CCN(C(=O)CCl)CC1 = 0
